Where these numbers come from: ChEMBL document CHEMBL1136982

# Tested on: SNU-398
# methodDescription: Growth inhibition of human SNU398 cells after 48 hrs
# Format: functional
# assayConditions: SNU-398, 48 h
quantityMeasured: GI50 (µM)

structure: CC[C@]1(O)C[C@@H]2CN(CCc3c([nH]c4ccccc34)[C@@](C(=O)OC)(c3cc4c(cc3OC)N(C)[C@H]3[C@@](O)(C(=O)OC)[C@H](OC(C)=O)[C@]5(CC)C=CCN6CC[C@]43[C@@H]65)C2)C1
recordedNumber: 0.005
--
structure: CC(=O)O[C@H]1C(=O)[C@@]2(C)[C@H]([C@H](OC(=O)c3ccccc3)[C@]3(O)C[C@H](OC(=O)[C@H](O)[C@@H](NC(=O)c4ccccc4)c4ccccc4)C(C)=C1C3(C)C)[C@]1(OC(C)=O)CO[C@@H]1C[C@@H]2O
recordedNumber: 0.061
--
structure: COc1cccc(C(=O)c2cc(C#N)c3ccc4c(Cl)cccc4n23)c1
recordedNumber: 4.8
--
structure: N#Cc1cc(C(=O)c2cccc(O)c2)n2c1ccc1c(Cl)cccc12
recordedNumber: 2.6

----------
# Test system: T47D
# methodDescription: Induction of apoptosis in human T47D cells measured after 48 hrs by cell and caspase based HTS assay
# Type: functional
pEC50: −log10 of the molar value.
Decide using pEC50: a value greater than or equal to 7 is Y, a smaller one is N.

structure: N#Cc1cc(C(=O)c2ccccc2)n2c1ccc1cc(Cl)ccc12
categoryLabel: N

structure: CC(=O)O[C@H]1C(=O)[C@@]2(C)[C@H]([C@H](OC(=O)c3ccccc3)[C@]3(O)C[C@H](OC(=O)[C@H](O)[C@@H](NC(=O)c4ccccc4)c4ccccc4)C(C)=C1C3(C)C)[C@]1(OC(C)=O)CO[C@@H]1C[C@@H]2O
categoryLabel: Y

structure: N#Cc1cc(C(=O)c2cccc(O)c2)n2c1ccc1c(Cl)cccc12
categoryLabel: N

structure: N#Cc1cc(C(=O)c2ccc(F)cc2)n2c1ccc1c(Cl)cccc12
categoryLabel: Y

structure: N#Cc1cc(C(=O)c2ccccc2)n2c1ccc1c(OCCN3CCOCC3)cccc12
categoryLabel: N

structure: N#Cc1cc(C(=O)c2cccc(N)c2)n2c1ccc1c(Cl)cccc12
categoryLabel: N

structure: N#Cc1cc(C(=O)c2ccc(-n3ccnc3)cc2)n2c1ccc1c(Cl)cccc12
categoryLabel: N

structure: Cc1cc2ccccc2n2c(C(=O)c3ccccc3)cc(C#N)c12
categoryLabel: N

structure: Cc1ccc2ccc3c(C#N)cc(C(=O)c4ccccc4)n3c2c1
categoryLabel: N

structure: N#Cc1cc(C(=O)c2ccccc2)n2c1ccc1c([N+](=O)[O-])cccc12
categoryLabel: N

structure: Cc1cc2c(C#N)cc(C(=O)c3ccccc3)n2c2ccccc12
categoryLabel: N

structure: N#Cc1cc(C(=O)c2ccccc2)n2c1ccc1c(O)cccc12
categoryLabel: N

----------
Measured EC50, listed per entry.
# System: T47D
# methodDescription: Induction of apoptosis in human T47D cells measured after 48 hrs by cell and caspase based HTS assay
# Assay type: functional
quantityMeasured: EC50

structure: CN(C)CCOc1cccc2c1ccc1c(C#N)cc(C(=O)c3ccccc3)n12
result: 2800 nM
--
structure: Cc1ccc2c(ccc3c(C#N)cc(C(=O)c4ccccc4)n32)c1
result: > 10000 nM
--
structure: N#Cc1cc(C(=O)c2ccccc2)n2c1ccc1c(Cl)cccc12
result: 83 nM
--
structure: CC[C@]1(O)C[C@@H]2CN(CCc3c([nH]c4ccccc34)[C@@](C(=O)OC)(c3cc4c(cc3OC)N(C)[C@H]3[C@@](O)(C(=O)OC)[C@H](OC(C)=O)[C@]5(CC)C=CCN6CC[C@]43[C@@H]65)C2)C1
result: 32 nM
